Recorded values, source patent US4471131A.

Test system: Downy Brome
Test: post-emergence herbicidal activity, greenhouse
Type: in vivo
Details: Table III; 2 WAT; 5.6 kg/h; formulated in anhydrous tetrahydrofuran
Plant Response Index (J) values by entry

smilesInput	system	Plant Response Index (J)
CCCCOC(=O)CNCP(=O)(O)O[Si](C)(C)C(C)(C)C	Downy Brome	1 (25-49% inhibition)
CC(C)(C)[Si](OP(=O)(O)CNCC(=O)O)(c1ccccc1)c1ccccc1	Downy Brome	0 (0-24% inhibition)
CCCCOC(=O)CNCP(=O)(O)O[Si](c1ccccc1)(c1ccccc1)C(C)(C)C	Downy Brome	1 (25-49% inhibition)
CCOC(=O)CNCP(=O)(O)O[Si](c1ccccc1)(c1ccccc1)C(C)(C)C	Downy Brome	2 (50-74% inhibition)

* * *

Plant Response Index (C) values by entry
Test system: Velvetleaf
Assay: post-emergence herbicidal activity, greenhouse
Type: in vivo
Settings: Table II; 4 WAT; 11.2 kg/h; formulated immediately prior to treatment

molecule	Plant Response Index (C)
CC(C)OC(=O)CNCP(=O)(O)O[Si](c1ccccc1)(c1ccccc1)C(C)(C)C [Ex. 2]	3 (75-99% inhibition)
CC(C)OC(=O)CNCP(=O)(O[Si](c1ccccc1)(c1ccccc1)C(C)(C)C)O[Si](c1ccccc1)(c1ccccc1)C(C)(C)C [Ex. 1]	1 (25-49% inhibition)
CC(C)(C)[Si](C)(C)OP(=O)(CNCC(=O)OCCc1ccccc1)O[Si](C)(C)C(C)(C)C [Ex. 10, Hydrate]	2 (50-74% inhibition)
CC(C)(C)[Si](C)(C)OC(=O)CNCP(=O)(O[Si](C)(C)C(C)(C)C)O[Si](C)(C)C(C)(C)C [Ex. 9]	2 (50-74% inhibition)

* * *

Test system: Yellow Nutsedge
Experiment: post-emergence herbicidal activity, greenhouse
Type: in vivo
Settings: Table II; 4 WAT; 11.2 kg/h

compound	Plant Response Index (G)
CC(C)(C)[Si](OP(=O)(O)CNCC(=O)O)(c1ccccc1)c1ccccc1	2 (50-74% inhibition)
CC(C)(C)[Si](OP(=O)(O)CNCC(=O)OCCCl)(c1ccccc1)c1ccccc1 [Ex. 8, Hydrate]	3 (75-99% inhibition)
CCOC(=O)CNCP(=O)(O)O[Si](c1ccccc1)(c1ccccc1)C(C)(C)C	3 (75-99% inhibition)
CCCCOC(=O)CNCP(=O)(O)O[Si](c1ccccc1)(c1ccccc1)C(C)(C)C	2 (50-74% inhibition)

* * *

System: Wild Buckwheat
Experiment: post-emergence herbicidal activity, greenhouse
Type: in vivo
Details: Table III; 2 WAT; .28 kg/h; formulated in anhydrous tetrahydrofuran
Plant Response Index (Q) values by entry

smilesInput	Plant Response Index (Q)
CCCCOC(=O)CNCP(=O)(O)O[Si](c1ccccc1)(c1ccccc1)C(C)(C)C	1 (25-49% inhibition)
CC(C)(C)[Si](OP(=O)(O)CNCC(=O)O)(c1ccccc1)c1ccccc1	0 (0-24% inhibition)
CCOC(=O)CNCP(=O)(O)O[Si](c1ccccc1)(c1ccccc1)C(C)(C)C	1 (25-49% inhibition)
CCCCOC(=O)CNCP(=O)(O)O[Si](C)(C)C(C)(C)C	1 (25-49% inhibition)

* * *

Tested on: Pennsylvania Smartweed
Assay: post-emergence herbicidal activity, greenhouse
Format: in vivo
Conditions: Table II; 4 WAT; 11.2 kg/h

compound	Plant Response Index (F)
CC(C)(C)[Si](OP(=O)(O)CNCC(=O)OCCCl)(c1ccccc1)c1ccccc1 [Ex. 8, Hydrate]	4 (100% inhibition)
CCCCOC(=O)CNCP(=O)(O)O[Si](c1ccccc1)(c1ccccc1)C(C)(C)C	2 (50-74% inhibition)
CC(C)(C)[Si](OP(=O)(O)CNCC(=O)O)(c1ccccc1)c1ccccc1	2 (50-74% inhibition)
CCOC(=O)CNCP(=O)(O)O[Si](c1ccccc1)(c1ccccc1)C(C)(C)C	2 (50-74% inhibition)
